Test system: NCI-H522 lung
Experiment: NCI tumour cell line growth inhibition, 48 h
TGI for assorted compounds
Measurement label: TGI (µM)

{"columns": ["Compound", "Qual", "Value measured"],
 "data": [
  ["O=C1CSC2(CC(/C=C/c3ccccc3[N+](=O)[O-])=NN2c2cccc(S(=O)(=O)O)c2)N1c1nc2ccccc2s1 (centres undefined)", "=", 22.1],
  ["COc1ccc(/C=C\\c2cc(OC)c(OC(C)=O)c(OC)c2)cc1", "=", 39.7],
  ["COc1ccc(/C=N/C2=C(C#N)C(c3ccccc3)c3ccc4ccccc4c3O2)cc1 (centres undefined)", "=", 5.5],
  ["COc1ccc(/C=C/C(=O)N[C@@H]2C(=O)N3[C@@H]2SC(C)(C)[C@@H]3C(=O)O)cc1OC", ">", 100]
]}

----------
Tested on: KM12 colon
Test: NCI tumour cell line growth inhibition, 48 h
TGI for assorted compounds

{"columns": ["Compound", "Tested system", "TGI"],
 "data": [
  ["CN1CCN(C(=S)N(C(=O)c2ccc(Cl)cc2)C2CCCCC2)CC1", "KM12 colon", "> 100 µM"],
  ["COc1cc(-c2nc3cc(Cl)c(Cl)cc3[nH]2)ccc1OCC(=O)N=Nc1c(O)[nH]c2ccccc12", "KM12 colon", "3.19 µM"],
  ["CN=C(NC#N)NCc1ccccc1", "KM12 colon", "> 100 µM"],
  ["CN1CCN2CCN(C)CCN(CC1)CC2", "KM12 colon", "> 100 µM"],
  ["C[C@@H](Br)[C@@H]1CC[C@H]2c3[nH]c4ccccc4c3CCN2C1", "KM12 colon", "28.5 µM"],
  ["Cc1nc2c(ccc3[nH]c4ccccc4c32)s1", "KM12 colon", "56.5 µM"],
  ["COC(=O)CC(c1ccccc1)C(C#N)(OP1(=O)OC(c2ccccc2)C(C)N1C)c1ccccc1 (stereo unspecified)", "KM12 colon", "> 100 µM"],
  ["c1ccc(Oc2cnc3ccccc3n2)cc1", "KM12 colon", "> 100 µM"],
  ["CCOc1ccnc2c(OC)c(C)c3nc4ccccc4nc3c12", "KM12 colon", "> 100 µM"],
  ["COc1cc2c(cc1OC)-c1c(c3ccc([N+](=O)[O-])cc3c(=O)n1CCCBr)C2=O", "KM12 colon", "> 100 µM"],
  ["COC(=O)C(Cc1cc(OC)c(OC)c(OC)c1)(NC(=O)c1ccccc1)P(=O)(OC)OC (stereo unspecified)", "KM12 colon", "> 100 µM"],
  ["COc1ccc(-c2nn(C(=O)c3cc(OC)c(OC)c(OC)c3)c3cc(N)ccc23)cc1", "KM12 colon", "1.83 µM"],
  ["CC(C)[Si](CC1=CCCCC12C(=O)N(COCC[Si](C)(C)C)c1ccccc12)(C(C)C)C(C)C (stereo unspecified)", "KM12 colon", "> 100 µM"],
  ["O=C1COCCN1c1ccc(NCc2cn(Cc3ccc(F)cc3)c3ccccc23)cc1", "KM12 colon", "> 75.9 µM"],
  ["O=C(O)Cc1ccc(-n2nnc3c(=O)[nH][nH]c(=O)c32)cc1", "KM12 colon", "> 100 µM"],
  ["C=CCOc1ccc2c(c1)CC[C@@H]1[C@@H]2CC[C@]2(C)C(=O)/C(=N/O)C[C@@H]12", "KM12 colon", "11.2 µM"],
  ["O=C(Nc1ccc(-n2cc(-c3ccncc3)c(-c3ccc(Cl)c(O)c3)n2)cc1)c1ccc(Cl)c(C(F)(F)F)c1", "KM12 colon", "2.88 µM"],
  ["C/C(=N\\Nc1nc2ccccc2[nH]1)c1ccc2ccccc2n1", "KM12 colon", "14.3 µM"],
  ["COc1ccc(-c2nc3ccccc3c(=O)[nH]2)cc1OC", "KM12 colon", "> 100 µM"],
  ["COc1cc(CNC(=O)CCCCCCCCCCSC#N)ccc1O", "KM12 colon", "19.3 µM"],
  ["COc1ccc(OC)c2c1-c1nnnn1CCC2(C)C", "KM12 colon", "> 100 µM"],
  ["CCCCCC(=O)OC[n+]1ccc(-c2c(COC(=O)NC(C)C)c(COC(=O)NC(C)C)c3n2CCC3)cc1", "KM12 colon", "> 100 µM"],
  ["c1ccc2c(c1)-c1nc3ccccc3cc1C2N1CCOCC1 (stereo unspecified)", "KM12 colon", "> 100 µM"],
  ["CCc1cc(Cc2cc(CC)cc(C(C)(C)C)c2O)c(O)c(C(C)(C)C)c1", "KM12 colon", "6.35 µM"],
  ["O=C(CN1CCOCC1)c1ccc2c(c1)oc(=O)n2CCN1CCCCC1", "KM12 colon", "> 100 µM"],
  ["COc1cc(/C=C/C(=O)c2ccc(SC)cc2)cc(OC)c1OC", "KM12 colon", "29.1 µM"],
  ["COc1ccc(-c2cc(-c3ccncc3)nc(N)c2-c2ccc(F)cc2)cc1", "KM12 colon", "> 100 µM"],
  ["COc1ccc(Nc2cnc3cc(N)ccc3n2)cc1OC", "KM12 colon", "> 100 µM"],
  ["Nc1nc(-c2ccccc2Cl)cc(-c2ccc(Cl)cc2Cl)n1", "KM12 colon", "31.3 µM"],
  ["[B]C(=O)NC(CC(C)C)C(=O)NC1c2ccsc2C(=O)C1O (stereo unspecified) (tested in a mixture with another compound)", "KM12 colon", "> 100 µM"],
  ["COc1ccc(/C=N/C2=C(C#N)C(c3ccccc3)c3ccc4ccccc4c3O2)cc1 (stereo unspecified)", "KM12 colon", "> 100 µM"],
  ["O=C1N(c2ccccc2)N=C2c3ccncc3C3=NN(c4ccccc4)C(=O)C123 (stereo unspecified)", "KM12 colon", "> 100 µM"],
  ["C=C(C=O)[C@@H]1CC=C(C=O)CC1", "KM12 colon", "27.8 µM"],
  ["O=C(c1ccccc1)C(c1ccccc1)C1(O)C(=O)Nc2ccc(Br)cc21 (stereo unspecified)", "KM12 colon", "> 100 µM"],
  ["COc1cccc(/C=N/[N-]C(N)=O)c1[O-].[Cu+2].c1ccncc1", "KM12 colon", "35.9 µM"],
  ["COc1ccc2c(C(=O)NCCCCCC(=O)O)cc3cc4c(cc3c2c1)OCO4", "KM12 colon", "> 100 µM"]
]}

// data source = PubChem BioAssay (NCI)
